tested on: SF-539 CNS; assay: NCI-60 one-dose screen, 48 h (100 = growth as untreated, 0 = no growth, -100 = all killed); conditions: 10 µM unless noted
Compounds without any hit were thinned out: in the full panel of roughly 83,000, 20% have a hit.
Known growth of a selection of compounds
Write it as a number; the unit % goes unstated.

O=C(/C=C/C12c3ccccc3C(c3ccccc31)C1C(=O)NC(=O)C12)c1ccc(F)cc1 (stereo unspecified)    6.05
COc1ccc2c(c1)c(-c1nonc1-c1cn(C)c3ccc(OC)cc13)cn2C    33.9
C=CCOC(=O)C1=C(C)NC(=O)NC1c1c(Cl)n(C)c2ccccc12 (stereo unspecified)    93.5
O=C(c1ccc(Cl)cc1Cl)N1c2ccccc2Sc2ccccc21    41.8

Request: growth, test system SF-539 CNS, entry O=c1oc2c(cnc3ccccc32)cc1-c1cccs1
Result: 105

Request: Check COc1cc2c(c(OC)c1OC)C(=O)N[C@@H]1[C@@H](O)[C@@H](O)[C@H](O)C[C@@H]21 too.
Result: 100

Request: Check CN1CCN(CCCOc2ccc3ncnc(Nc4ccc(Oc5cccc(F)c5)c(Cl)c4)c3c2)CC1 too.
Result: -75.1

Request: Check N#Cc1nc2c(S(=O)(=O)c3ccccc3)c(N)n(Cc3cccnc3)c2nc1C#N too.
Result: 58.7

###

test system: IGROV1 ovarian; test: NCI-60 one-dose screen, 48 h; settings: 10 µM unless noted
About 83,000 compounds went through this panel and 20% of them were active in at least one assay; those are over-represented in the sample as a whole. Active and inactive are the calls of the source. Rule for the calls: active = growth percent below 10; inactive = the rest.
Lab note: assign the record to one of 1.0 for active, 0.0 for inactive

Example entries and their recorded answers appear below.
C=C1C(=O)O[C@H]2[C@H]1CC/C(COC(=O)NCc1ccc(Cn3c(=O)sn(-c4ccc(OC)cc4)c3=O)cc1)=C\CC[C@@]1(C)O[C@@H]21    0.0
CN1CCN(CCOc2ccc(-c3cnc4c(-c5ccc(C(F)(F)F)cc5)cnn4c3)cc2)CC1    0.0
Clc1ccc(-c2nc(-c3c[nH]c4ncccc34)cs2)cc1    0.0
COc1ccc2c(c1)c(-c1nc(-c3cn(C)c4ncccc34)cs1)cn2CCO    0.0

Request: Returns: the outcome recorded for O=C1C(Cl)=C(NCCN2CCOCC2)C(=O)c2ncccc21 in this assay.
Result: 1.0

Request: Check O=C(c1ccc(Cl)cc1Cl)N1c2ccccc2Sc2ccccc21 too.
Result: 0.0

Request: Check COC(=O)C1=Nc2ccc(F)cc2/C1=C\c1sc(Nc2ccc(O)cc2)nc1O too.
Result: 0.0

Request: Check O=C(Nc1ncc(Cc2ccccc2Cl)s1)c1cccs1 too.
Result: 0.0

Request: Check C=C(CO)[C@@H]1CC[C@]2(COC3CCCCO3)CC[C@]3(C)[C@H](CC[C@@H]4[C@@]5(C)C=C(C=O)C(=O)C(C)(C)[C@@H]5CC[C@]43C)[C@@H]12 (some centres undefined) too.
Result: 1.0

###

test system: A549/ATCC NSCLC; assay: NCI-60 one-dose screen, 48 h (100 = growth as untreated, 0 = no growth, -100 = all killed); settings: 10 µM unless noted
This is part of a sample that, as a whole, favours compounds with a hit. Of some 83,000 tested, about 20% had one in any assay.
Respond with label 1 for growth values of 90% and above, label 0 for values below.

Example entries and their recorded answers appear below.
COC(=O)C1=Nc2ccc(F)cc2/C1=C\c1sc(Nc2ccc(O)cc2)nc1O    label 1
C/C(=N\O)C(=O)NCCCCCC(=O)Nc1ccccc1    label 1
O=C1NC(=O)c2c1c1c3ccccc3[nH]c1c1oc3cc(Br)ccc3c21    label 0
Cc1ccc(C(=O)c2ccc(CC(=O)N/N=C/c3ccc(O)cc3O)n2C)cc1    label 0
CCCCCCCCn1ccc2cc(NC(=O)Cn3cc(CN4CCN(CC)CC4)nn3)ccc21    label 0

Request: Is reported growth greater than or equal to 90% here: NS(=O)(=O)c1ccc(N/C=C/C(=O)c2cc3ccccc3oc2=O)cc1
Result: label 1
